meta.source: PubChem BioAssay (NCI)

Test system: A549 NSCLC
method-notes: NCI tumour cell line growth inhibition, 48 h
Exercise: state measured TGI for each of the compounds provided.
Respond with the bare value in µM.

QUERY: Find TGI (A549 NSCLC) for the entry O=[N+]([O-])c1ccc(N(CCO)CCO)c2c1no[n+]2[O-]
RESULT: 8.92

QUERY: Find TGI (A549 NSCLC) for the entry COC(=O)c1c2c(c(C)[n+]([O-])c1C)C(=O)C(NCc1ccc(F)c(Cl)c1)=CC2=O
RESULT: 8.15

---

Tested on: EKVX NSCLC
method-notes: NCI tumour cell line growth inhibition, 48 h
experimental-endpoint: TGI

QUERY: Entry Nc1nc(=O)n(C2OC(CO)C(O)C2O)cc1F (stereo unspecified) : reported TGI = ?
RESULT: > 40.9 µM

QUERY: Entry O=C(O)[C@@H]1C[C@@H](O)CN1 : reported TGI = ?
RESULT: > 100 µM

QUERY: Entry Cc1cccc(C)c1NC(=S)/N=C/C1=C(O)c2ccccc2C1=O : reported TGI = ?
RESULT: > 94.4 µM

QUERY: Entry CC[n+]1[b-](C(C)(C)C)n(/N=C(\C)C(C)(C)C)[b-](C(C)(C)C)[n+]1CC : reported TGI = ?
RESULT: > 100 µM

QUERY: Entry CC1=CCC2(C#N)CCC1C2=O (stereo unspecified) : reported TGI = ?
RESULT: > 100 µM

QUERY: Entry CN1c2ccccc2C2c3c(O)ccc(O)c3C=C([N+](=O)[O-])C21 (stereo unspecified) : reported TGI = ?
RESULT: 7.63 µM

QUERY: Entry CC1C(c2ccccc2O)c2cc3c(cc2OC1N1CCCC1)OCO3 (stereo unspecified) : reported TGI = ?
RESULT: > 100 µM

QUERY: Entry C=CCC1(O)c2cccc(O)c2C(=O)c2c(O)cccc21 : reported TGI = ?
RESULT: 92.2 µM

QUERY: Entry NC(=O)c1c(OCc2c(F)cc(Br)cc2F)nsc1NC(=O)NCCCCN1CCCC1 : reported TGI = ?
RESULT: > 10 µM

QUERY: Entry CC(=O)CN=C(C)NNc1ccc([N+](=O)[O-])cc1[N+](=O)[O-] : reported TGI = ?
RESULT: > 100 µM

QUERY: Entry CN(C)CCCC1(c2ccc(F)cc2)OCc2cc(-c3ccc4cc[nH]c4c3)ccc21 (stereo unspecified) : reported TGI = ?
RESULT: 5 µM

---

System: HOP-62 NSCLC
method-notes: NCI tumour cell line growth inhibition, 48 h
Exercise: state measured TGI for each of the compounds provided.

QUERY: Entry COc1cc2c[n+](C)c3c4ccccc4ccc3c2cc1OC : reported TGI = ?
RESULT: 37.4 µM

QUERY: Entry CC1=CCC2(C#N)CCC1C2=O (stereo unspecified) : reported TGI = ?
RESULT: > 100 µM

QUERY: Entry N#Cc1c(N2CCOCC2)ncn(-c2ccccc2)c1=O : reported TGI = ?
RESULT: > 100 µM

QUERY: Entry CCCCCN(CCCCC)C(=O)[C@@H](CCC(=O)OCc1ccccc1)NC(=O)c1cc2ccccc2[nH]1 : reported TGI = ?
RESULT: > 100 µM

QUERY: Entry C=C1C(=O)C=C2C=C3C(=O)C(C)(C)C[C@]3(O)C12C (stereo partly specified) : reported TGI = ?
RESULT: 53.3 µM

QUERY: Entry COc1cc(/C=C2\NC(=O)N(/C=C3\C(=O)Oc4ccccc4C3=O)C2=O)ccc1O : reported TGI = ?
RESULT: > 100 µM

---

System: A498 renal
method-notes: NCI tumour cell line growth inhibition, 48 h; in the data active = GI50 below about 0.43 µM; inactive = the rest
Use one of these outcomes when replying: 1.0 = active, 0.0 = inactive

QUERY: I would be grateful if you could indicate the recorded call for O=S(=O)(Nc1ccc(Cl)c(C(F)(F)F)c1)c1ccc(-c2cnc(C3CC3)o2)cc1 .
RESULT: 1.0

QUERY: I would be grateful if you could indicate the recorded call for N#Cc1cccc(Nc2nccc(-c3cnn4ncccc34)n2)c1 .
RESULT: 1.0

QUERY: I would be grateful if you could indicate the recorded call for C[C@]12CC[C@H]3[C@@H](C[C@@H]4SC(Nc5cccc(F)c5)=N[C@@]45CC(=O)CC[C@]35C)[C@@H]1CCC2=O .
RESULT: 0.0

QUERY: I would be grateful if you could indicate the recorded call for C[C@]12CC[C@@H]3c4ccc(O)cc4CC[C@H]3[C@@H]1CC[C@@H]2NS(=O)(=O)c1cccc(Br)c1 .
RESULT: 0.0

QUERY: I would be grateful if you could indicate the recorded call for COc1ccc2[nH]cc(/C=C3\C(=O)Nc4ccccc43)c2c1 .
RESULT: 0.0

QUERY: I would be grateful if you could indicate the recorded call for CS(=O)(=O)c1ccc(C(F)(F)F)cc1NC(=O)Nc1cnc(Oc2ccc(-c3cc(Cl)cnc3N)cc2)nc1 .
RESULT: 0.0

QUERY: I would be grateful if you could indicate the recorded call for O=C1C(Nc2ccccn2)=C(I)C(=O)c2ncccc21 .
RESULT: 0.0

QUERY: I would be grateful if you could indicate the recorded call for Nc1ccc(-c2ccc(-c3nc4ccccc4[nH]3)cc2)cc1 .
RESULT: 0.0

QUERY: I would be grateful if you could indicate the recorded call for CCN(C)S(=O)(=O)Nc1cccc(Nc2ncnc3cc(NC(=O)CCl)ccc23)c1Cl .
RESULT: 0.0

---

Tested on: EKVX NSCLC
method-notes: NCI tumour cell line growth inhibition, 48 h
Exercise: state measured TGI for each of the compounds provided.

QUERY: Entry C=CC1=C(C)C2=NC1=CC1=NC(=C(CC)/C1=C/O)C=C1C=C3C(=O)C(C(=O)OC)C(=C4NC(=C2)C(C)C4CCC(=O)OC/C=C(\C)CCCC(C)CCCC(C)CCCC(C)C)C3=N1 (stereo not given) (tested in a mixture with another compound) : reported TGI = ?
RESULT: > 100 µM

QUERY: Entry Nc1cc(C(F)F)c(-c2nc(N3[C@@H]4CC[C@H]3COC4)nc(N3[C@@H]4CC[C@H]3COC4)n2)cn1 : reported TGI = ?
RESULT: 6.61 µM

QUERY: Entry CC(=O)N1c2ccccc2C23CCN4CC5=CCOC(O)C(C5CC42)C13 (stereo not given) : reported TGI = ?
RESULT: > 100 µM

QUERY: Entry O=C(c1nsc(Cl)c1Cl)N1CCCCC1 : reported TGI = ?
RESULT: > 100 µM

QUERY: Entry CNC(Cc1ccccc1)c1cccc(OC)c1O (stereo not given) : reported TGI = ?
RESULT: > 100 µM

QUERY: Entry COC(=O)C1=NN2c3ccccc3CN([C@@H](C)c3ccccc3)C(=O)[C@@H]2C1 : reported TGI = ?
RESULT: > 100 µM

QUERY: Entry CCC12C=CCN3CC[C@]4(C(=C(C(=O)OC)[C@@H]1Nc1ccn(C5OC(COC(C)=O)C(OC(C)=O)C5OC(C)=O)c(=O)n1)Nc1ccccc14)C32 (stereo not given in full) : reported TGI = ?
RESULT: 14.3 µM

QUERY: Entry COc1cccc(/C=N/n2c(-c3ccccc3)n[nH]c2=O)c1 : reported TGI = ?
RESULT: > 100 µM

QUERY: Entry O=[N+]([O-])c1ccc2nc(N/N=C/c3ccc(O)cc3)sc2c1 : reported TGI = ?
RESULT: > 100 µM

QUERY: Entry Cc1ccc2c(c1)NC(=O)C(N=[N+]=[N-])(c1ccccc1)C2=O (stereo not given) : reported TGI = ?
RESULT: 95.3 µM

---

Exercise: state measured TGI for each of the compounds provided.
System: SF-295 CNS
method-notes: NCI tumour cell line growth inhibition, 48 h
Where a SMILES comes first, the peptide text is derived from it. [ ]: non-standard residue; d: D form. 2Nal = N[CH](Cc1ccc2ccccc2c1)C(=O)O

QUERY: Entry O=C1OC(c2ccc([N+](=O)[O-])cc2)=N/C1=C\c1ccc(O)cc1 : reported TGI = ?
RESULT: > 100 µM

QUERY: Entry CCCNc1[nH]c(C(C)=O)c(N)c1C(=S)Nc1ccccc1 : reported TGI = ?
RESULT: > 100 µM

QUERY: Entry COc1cccc(/C=N/n2c(-c3ccccc3)n[nH]c2=O)c1 : reported TGI = ?
RESULT: 54.4 µM

QUERY: Entry O=C(O)/C(O)=C1/C=C(c2ccccc2)c2ccccc21 : reported TGI = ?
RESULT: 32.9 µM

QUERY: Entry CC(C)(C)C1CCC2c3c([nH]c4ccccc34)C3C(=O)N(c4ccc(Br)cc4)C(=O)C3C2C1 (stereo not drawn) : reported TGI = ?
RESULT: 63.1 µM

QUERY: Entry CS(=O)(=O)C(=Cc1ccccc1Cl)S(C)(=O)=O : reported TGI = ?
RESULT: > 46.4 µM

QUERY: Entry Cc1ccc(C2SC(N)=Nc3c2c(C)nn3C(=O)c2ccncc2)cc1 (stereo not drawn) : reported TGI = ?
RESULT: > 10 µM

QUERY: Entry C[C@H](CCc1nc(C#N)c(N)o1)[C@H]1CC[C@H]2[C@@H]3[C@@H](O)CC4C[C@@H](O)CC[C@]4(C)[C@H]3C[C@@H](O)[C@]12C (stereo partly drawn) : reported TGI = ?
RESULT: 53.2 µM

QUERY: Entry CC(C)(C)SC1=CCC[C@@H](P(=O)(c2ccccc2)c2ccccc2)[C@@H]2CCC[C@@H]12 : reported TGI = ?
RESULT: 29 µM

QUERY: Entry C=C1CC2(OC1=O)c1ccccc1CCc1ccccc12 : reported TGI = ?
RESULT: 29.8 µM

QUERY: Entry COCCN1C2=CCCCC2=Nc2c(N)nc(N)nc21 : reported TGI = ?
RESULT: > 100 µM

QUERY: Entry O=C1CCC(=O)c2cc(Br)ccc2N1 : reported TGI = ?
RESULT: > 100 µM

QUERY: Entry COC(=O)[C@]1(c2cc3ccccc3[nH]2)CC2CN(CC(=O)N(C)OC)C1C1OC(C)(C)OC21 (stereo partly drawn) : reported TGI = ?
RESULT: > 100 µM

QUERY: Entry CC(NC(=O)C(N)Cc1ccccc1)C(=O)NC(Cc1ccc(O)cc1)C(=O)NC(Cc1c[nH]c2ccccc12)C(=O)NC(CCCCN)C(=O)NC(C(=O)NC(C)C(=O)NC(Cc1ccc2ccccc2c1)C(N)=O)C(C)C (stereo not drawn) (H-FAYWKVA[2Nal]-NH2; configuration not given here) : reported TGI = ?
RESULT: > 12.5 µM

QUERY: Entry CC(C)OCN1COCN=C1NC#N : reported TGI = ?
RESULT: > 100 µM

QUERY: Entry Nc1ncnc2c1ncn2CC(OCP(=O)(O)O)Oc1ccccc1 (stereo not drawn) : reported TGI = ?
RESULT: > 100 µM

QUERY: Entry Cc1ccc(S(=O)(=O)n2ccn3c(=O)cc(C)nc23)cc1 : reported TGI = ?
RESULT: > 10 µM

QUERY: Entry O=C(N/N=C/c1cc2ccccc2c2ccccc12)c1cc(O)c(O)c(O)c1 : reported TGI = ?
RESULT: 32.1 µM
